This listing pairs compounds with measured selectivity ratio.
- Protocol notes: Therapeutic index, ratio of CC50 for human […] cells to EC50 for HIV1-3B
- Assay type: cell-based
- Condition summary: read-out: Ratio CC50/EC50

[
  {
    "Test smiles": "C=C(C)[C@@H]1CC[C@@H]2[C@]3(CC[C@]4(C)C(=O)CC[C@@]24C)C[C@]13CCC(=O)O",
    "selectivity ratio": 11.2
  },
  {
    "Test smiles": "CC1(C)OC(=O)C=C[C@]23C[C@]24C[C@H](O)[C@]2(C)[C@@H]([C@@](C)(O)[C@H]5CC=C(CO)C(=O)O5)CC[C@@]2(C)[C@@H]4C[C@H](O)[C@@H]13",
    "selectivity ratio": 13.4
  },
  {
    "Test smiles": "C/C=C(/C)C(=O)O[C@H]1c2cc(OC)c(OC)c(OC)c2-c2c(cc3c(c2OC)OCO3)C[C@H](C)[C@]1(C)O",
    "selectivity ratio": "> 9.05"
  },
  {
    "Test smiles": "CC1=CC[C@H]([C@](C)(O)[C@H]2CC[C@@]3(C)[C@@H]4C[C@H](O)[C@H]5C(C)(C)OC(=O)C=C[C@@]56C[C@@]46C[C@H](O)[C@]23C)OC1=O",
    "selectivity ratio": 13.4
  },
  {
    "Test smiles": "C=C(C)[C@@H]1C[C@H](O)[C@@H]2[C@]3(CC[C@]4(C)C([C@@](C)(O)CC/C=C(/C)C(=O)O)=C[C@H](O)[C@@]24C)C[C@]13CCC(=O)O",
    "selectivity ratio": 13.9
  }
]
